Kindly state hERG IC20/TLR7 IC50 for each of the entries shown.
measuredTarget: hERG channel (Homo sapiens)
Construct: expressed in transfected cells; host or cells: CHO (Chinese hamster ovary), CHOhERG
Sequence (Q12809 whole entry): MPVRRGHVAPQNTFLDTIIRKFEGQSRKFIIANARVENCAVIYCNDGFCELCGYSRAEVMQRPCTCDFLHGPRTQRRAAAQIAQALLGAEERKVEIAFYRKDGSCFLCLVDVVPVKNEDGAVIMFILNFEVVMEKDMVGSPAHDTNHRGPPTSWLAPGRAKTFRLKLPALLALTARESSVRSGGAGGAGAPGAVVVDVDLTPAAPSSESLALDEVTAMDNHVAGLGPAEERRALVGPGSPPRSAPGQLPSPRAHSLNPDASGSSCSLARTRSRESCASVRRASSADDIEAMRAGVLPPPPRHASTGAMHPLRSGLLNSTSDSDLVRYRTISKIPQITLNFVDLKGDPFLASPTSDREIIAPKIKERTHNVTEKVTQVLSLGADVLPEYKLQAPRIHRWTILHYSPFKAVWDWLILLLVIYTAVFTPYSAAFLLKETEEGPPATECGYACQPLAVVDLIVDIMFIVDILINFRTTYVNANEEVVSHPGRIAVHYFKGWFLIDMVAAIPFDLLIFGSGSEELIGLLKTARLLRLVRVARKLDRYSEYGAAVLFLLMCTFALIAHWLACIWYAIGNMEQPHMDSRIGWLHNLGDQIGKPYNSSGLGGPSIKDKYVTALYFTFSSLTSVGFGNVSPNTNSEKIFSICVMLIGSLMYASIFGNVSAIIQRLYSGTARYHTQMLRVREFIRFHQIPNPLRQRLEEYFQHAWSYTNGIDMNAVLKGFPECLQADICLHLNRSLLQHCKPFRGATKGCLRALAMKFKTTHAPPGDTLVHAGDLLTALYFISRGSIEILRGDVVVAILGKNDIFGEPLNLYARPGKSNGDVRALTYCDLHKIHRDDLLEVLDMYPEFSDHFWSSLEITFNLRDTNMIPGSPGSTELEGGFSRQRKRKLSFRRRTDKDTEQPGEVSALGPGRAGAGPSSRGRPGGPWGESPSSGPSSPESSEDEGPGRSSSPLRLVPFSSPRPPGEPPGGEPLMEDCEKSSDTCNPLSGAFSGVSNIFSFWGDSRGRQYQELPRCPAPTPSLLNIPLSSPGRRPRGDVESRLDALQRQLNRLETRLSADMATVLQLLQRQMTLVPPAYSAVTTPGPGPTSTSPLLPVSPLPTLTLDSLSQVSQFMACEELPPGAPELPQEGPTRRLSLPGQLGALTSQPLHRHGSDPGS
measurementDescription: hERG channel inhibition assay (patch-clamp, CHOhERG cells)
Type: cell-based
measurementParameters: safety ratio

**Query** Read off the recorded hERG IC20/TLR7 IC50 for "C[C@@H]1CN(c2ccc(C#N)c3ncccc23)C[C@@H]2CN(c3cc(N4CCNCC4)ccn3)CCN21"
**Result** 237

**Query** Read off the recorded hERG IC20/TLR7 IC50 for "[2H]c1ccc2c(N3C[C@@H]4CN(c5ccc(N6C[C@@H](N)[C@H](OC)C6)nc5)CCN4[C@@H](C)C3)ccc(C#N)c2n1"
**Result** >1000

**Query** Read off the recorded hERG IC20/TLR7 IC50 for "[2H]c1ccc2c(N3C[C@@H]4CN(c5ccc(N6CC7CCC(C6)N7)nc5)CCN4[C@@H](C)C3)ccc(C#N)c2n1"
**Result** >2500

**Query** Read off the recorded hERG IC20/TLR7 IC50 for "[2H]c1ccc2c(N3C[C@@H]4CN(c5ccc6c(n5)CCNC6)CCN4[C@@H](C)C3)ccc(C#N)c2n1"
**Result** >2000

**Query** Read off the recorded hERG IC20/TLR7 IC50 for "CO[C@@H]1CN(c2nccc(N3CCN4[C@@H](C3)CN(c3ccc(C#N)c5ncccc35)C[C@H]4C)n2)C[C@H]1N"
**Result** 431

**Query** Read off the recorded hERG IC20/TLR7 IC50 for "[2H]c1ccc2c(N3C[C@@H]4CN(CCc5ccc(N6C[C@H]7NCCO[C@@H]7C6)nc5)CCN4[C@H](C)C3)ccc(C#N)c2n1"
**Result** >476

**Query** Read off the recorded hERG IC20/TLR7 IC50 for "CO[C@@H]1CN(c2nc(C)cc(N3CCN4[C@@H](C3)CN(c3ccc(C#N)c5ncccc35)C[C@H]4C)n2)C[C@H]1N"
**Result** >556

**Query** Read off the recorded hERG IC20/TLR7 IC50 for "[2H]c1ccc2c(N3C[C@@H]4CN(Cc5ccc(N6CC(C)(N)C6)nc5C)CCN4[C@H](C)C3)ccc(C#N)c2n1"
**Result** >526

**Query** Read off the recorded hERG IC20/TLR7 IC50 for "C[C@@H]1CN(c2ccc(C#N)c3ncccc23)C[C@@H]2CN(CCc3ccc(N4CC5(CN(C)C5)C4)nc3)CCN21"
**Result** >385

**Query** Read off the recorded hERG IC20/TLR7 IC50 for "C[C@@H]1CN(c2ccc(C#N)c3ncccc23)C[C@@H]2CN(c3nccc(N4CCNCC4)n3)CCN21"
**Result** 283

**Query** Read off the recorded hERG IC20/TLR7 IC50 for "CO[C@@H]1CN(c2ccnc(N3CCN4[C@@H](C3)CN(c3ccc(C#N)c5ncccc35)C[C@H]4C)n2)C[C@H]1N"
**Result** 214

**Query** Read off the recorded hERG IC20/TLR7 IC50 for "C[C@@H]1CN(c2ccc(C#N)n3ncc(F)c23)C[C@@H]2CN(Cc3ccc4c(c3)CNCC4)CCN21"
**Result** >152

**Query** Read off the recorded hERG IC20/TLR7 IC50 for "Cc1cc(N2CC3(CN(C)C3)C2)cnc1N1CCN2[C@@H](C1)CN(c1cc(=O)n(C)c3ncccc13)C[C@@H]2C"
**Result** >1666

**Query** Read off the recorded hERG IC20/TLR7 IC50 for "[2H]c1ccc2c(N3C[C@@H]4CN(c5ccc([C@@H]6CNCCO6)cc5)CCN4[C@@H](C)C3)ccc(C#N)c2n1"
**Result** >5000

**Query** Read off the recorded hERG IC20/TLR7 IC50 for "[2H]c1ccc2c(N3C[C@@H]4CN(Cc5ccc(N6C[C@@H]7C[C@H]6CN7)nc5C)CCN4[C@H](C)C3)ccc(C#N)c2n1"
**Result** >1666

**Query** Read off the recorded hERG IC20/TLR7 IC50 for "[2H]c1ccc2c(N3C[C@@H]4CN(c5ncc(N6C[C@@H]7C[C@H]6CN7)cc5C)CCN4[C@@H](C)C3)ccc(C#N)c2n1"
**Result** >1666

**Query** Read off the recorded hERG IC20/TLR7 IC50 for "[2H]c1ccc2c(N3C[C@@H]4CN(Cc5ccc(N[C@H]6CNC[C@H]6F)nc5C)CCN4[C@H](C)C3)ccc(C#N)c2n1"
**Result** >833

**Query** Read off the recorded hERG IC20/TLR7 IC50 for "C[C@@H]1CN(c2ccc(C#N)c3ncccc23)C[C@@H]2CN(c3ccnc(N4CC(N)C4)c3)CCN21"
**Result** 275

**Query** Read off the recorded hERG IC20/TLR7 IC50 for "CO[C@H]1CN(c2ccc(CCN3CCN4[C@@H](C3)CN(c3ccc(C#N)c5ncccc35)C[C@H]4C)cn2)C[C@@H]1N"
**Result** >769

**Query** Read off the recorded hERG IC20/TLR7 IC50 for "[2H]c1ccc2c(N3C[C@@H]4CN(c5ncc(N6CC(C)(N)C6)cc5C)CCN4[C@@H](C)C3)ccc(C#N)c2n1"
**Result** 1914

**Query** Read off the recorded hERG IC20/TLR7 IC50 for C[C@@H]1CN(c2ccc(C#N)c3ncccc23)C[C@@H]2CN(Cc3ccc4c(c3)CNCC4)CCN21 (relative stereo) [Example 1]
**Result** >588

**Query** Read off the recorded hERG IC20/TLR7 IC50 for "[2H]c1ccc2c(N3C[C@@H]4CN(Cc5ccc(N6CC7(CN(C)C7)C6)nc5C)CCN4[C@H](C)C3)ccc(C#N)c2n1"
**Result** >434

**Query** Read off the recorded hERG IC20/TLR7 IC50 for Cc1cc(N2CCNCC2)ncc1N1CCN2CCN(c3ccc(C#N)c4ncccc34)CC2C1 (centres unmarked)
**Result** >5000
